Measured self-cleavage, listed per entry.
B1: Twister Ribozyme (parent)
chain: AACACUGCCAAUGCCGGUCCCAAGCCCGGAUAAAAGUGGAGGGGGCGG

Variants of: B1
Method summary: self-cleavage, relative activity (ratio to wild type); higher = more cleavage; co-transcriptional

Mutant	self-cleavage
U18C A23C	0.506
G13U G24U	0.0911
G16A U37C	0.335
U12A A32G	1.12
A11U G48U	1.12
C20U U31G	0.873
C14A G17A	0.457
C9G C19G	0.073
C3A U12A	0.0973
C19G A32G	0.267
C3A U18A	0.0528
G13A A35C	1.02
G41U G42U	0.125
A2G A34G	0.192
C3G A40C	0.12
A4G A30G	0.81
G28A G47U	0.576
G13C C19G	0.125
G39A G44C	0.231
G17C C27A	0.0647
A11C A33C	0.724
U6C G36C	0.112
C21A A30G	0.0944
C21U G29A	0.096
G13C G41U	0.0855
G28C G39C	0.159
G28C U31C	0.938
A35C G38C	0.921
G16A G36C	0.133
C27U G48U	0.942
G7C C26U	0.0512
G28U A34U	0.585
A40C G43C	0.157
U12C G17C	0.0944
G38A G45A	0.797
A11U G48A	0.951
U6G C14A	0.313
A22G C25A	0.0752
C9A U31C	0.765
U18C G38A	0.371
C15A A33C	0.538
G38U	0.923
A22U U37C	0.236
C14G U31A	0.153
G28U C46G	0.765
C5U A35G	0.435
